System: SN12C renal
run.description: NCI tumour cell line growth inhibition, 48 h

compound	GI50
COc1ccc(C2NN=C3c4ccccc4CCC32)cc1 (stereo not drawn)	15.4 µM
COc1cc(Cc2c(C)cc(OC)c3[nH]c4ccccc4c23)cc2c1[nH]c1ccccc12	6.4 µM
Cc1c(Nc2nccc3cc(CN4CC[C@@H](O)C4)cnc23)cccc1-c1cccc(-c2nc3cc(CN4CC[C@@H](C(=O)O)C4)cc(C#N)c3o2)c1C	20.1 µM
CC(C)[P+](c1ccccc1)(c1ccccc1)c1ccccc1	11.5 µM
FC(F)c1ncc(-c2ccc(C(F)(F)F)cc2)c(NC2CCCCCC2)n1	> 10 µM
O=c1cc(-c2ccccc2)[nH]c2c1CCCC2	13.4 µM
COc1ccc2nc(C)cc(Sc3nc4ccccc4s3)c2c1	1.7 µM
O=C(O)Cn1c2c(c3c1-c1ccccc1C3=O)C(=O)CCC2	> 100 µM
CN(C)CCN1C(=O)c2cccc3c(/C=C/CN4C(=O)c5cccc6cccc(c56)C4=O)ccc(c23)C1=O	21.9 µM
CC(C)=Cc1cc(C)c2ccc(C)c3c2c1C(C)=C(O)C3=O	24.3 µM
Nc1c(C(=O)c2cccc(C(O)CO)c2)cnn1-c1ccc(F)cc1 (stereo not drawn)	> 25 µM
CC/C=C/c1cc2c(cc1O)CCC1C2CC[C@@]2(C)C1CC[C@@H]2O (stereo partly drawn)	5.13 µM
Fc1ccc2c(c1)C1=C(CCC2)C(c2ccc(Cl)cc2)NC(=S)N1 (stereo not drawn)	60.8 µM

----------
System: SR leukemia
run.description: NCI tumour cell line growth inhibition, 48 h

compound	TGI
CC1CCCC(C#N)(NOC2=NCCN2)C1 (centres undefined)	> 100 µM
C1CSC[C@H]2COC[C@@H](CSCCS1)S2	> 100 µM
O=C1CCCCC/C1=C\c1cccc(F)c1	61.2 µM
CS(=O)(=O)c1ccc(COP(N)(=O)N(CCCl)CCCl)cc1 (centres undefined)	> 100 µM
CCOC(=O)c1c(-c2ccccc2)[n+](=O)c2cc(F)c(F)cc2n1[O-]	> 100 µM
N#CC1=C(N)NC(N2CCOCC2)=NC12Nc1ccccc1O2 (centres undefined)	> 100 µM
COc1cc(S(=O)(=O)Nc2nc(-c3ccc(N4C(=O)C(C)SC4c4ccccc4O)cc3)cs2)ccc1Cl (centres undefined)	> 100 µM
CCCCCCCC(=O)[O-].CCCCCCCC(=O)[O-].N.N.N.N.[Co+3].[O-][Cl+3]([O-])([O-])[O-]	> 100 µM
c1ccc2c[n+](CCCC[n+]3ccc4ccccc4c3)ccc2c1	> 100 µM
CN(C)C=N[C@@H](C(=O)O)c1ccccc1	> 100 µM
NC(N)=NC(N)=Nc1ccc(C(=O)O)cc1	> 100 µM
CCC1=C(C[C@H]2NCCc3cc(OC)c(OC)cc32)C[C@H]2c3cc(OC)c(OC)cc3CCN2C1	55.1 µM
CCc1ccc2oc(=O)ccc2c1	> 100 µM
COc1cc(F)c(F)cc1C(=O)c1cnc(NC2CCN(S(C)(=O)=O)CC2)nc1N	10.2 µM
CN1CCN(CCCOc2ccc3nc(Nc4ccc(F)c(F)c4)ccc3c2)CC1	6.95 µM
Cc1ccc2oc(=O)c3c(O)c4cccc(OC5OC(C)C6O[C@@H](c7ccccc7)OC6C5OC5OC(C)C(O)C(O)C5O)c4c4oc(=O)c1c2c34 (some centres undefined)	< 0.0472 µM
Cc1cc(C)c2c(c1)C/C(=C\c1cccc(C)c1C(=O)O)C2=O	> 100 µM
O=C1OCC2=C1C(c1cccc(C(F)(F)F)c1)c1cc3c(cc1N2CCO)OCCO3 (centres undefined)	> 33.3 µM
Cc1cc(C)nc(NS(=O)(=O)c2ccc(NNc3c4ccccc4nc4c(C(=O)Nc5ccc(S(=O)(=O)Nc6cc(C)on6)cc5)cccc34)cc2)n1	72.8 µM
CC(C)=Cc1cc(C)c2ccc(C)c3c2c1C(C)=C(O)C3=O	4.17 µM
Cc1cc(=O)[nH]c(N/N=C/c2ccccc2O)n1	> 100 µM
CC(CCc1nc2ccccc2s1)(c1ccc(O)cc1)c1ccc(O)cc1	53.3 µM
C/C(=C\Cc1ccc(F)cc1)CCCCCC/C(C)=C/Cc1ccc(F)cc1	57.2 µM
CC(C)C[C@H](NC(=O)Cn1cccc(CNC(=O)c2ccccc2)c1=O)B(O)O	> 100 µM
COc1cc2nc(N3CCC[C@H](NC4=CC(=O)c5ccccc5C4=O)C3)nc(N)c2cc1OC	2.94 µM
COc1c(C)c(C/C=C(\C)CCCC(C)CCCC(C)CCCC(C)C)c(OC)c2ccccc12 (centres undefined)	> 100 µM
O=C1C=CC(=O)c2c1ccc1c3ccccc3n(Cc3ccccc3)c21	> 28.7 µM
S=C1C(=Nc2ccccc2)N(c2ccccc2)/C(=N\c2cccc[n+]2Cc2ccccc2)N1c1ccccc1	79.7 µM
O=C1NC(=O)C(c2cccc(Cl)c2)=C1Nc1ccc(Cl)c(C(=O)O)c1	> 25 µM

----------
Test system: COLO 205 colon
run.description: NCI tumour cell line growth inhibition, 48 h
Rule: TGI under 40 µM gives label 0, otherwise label 1.

molecule	label.class
O=[N+]([O-])c1ccc(N2N=C(c3c(O)ccc4ccccc34)CC2c2ccc(Cl)cc2)c([N+](=O)[O-])c1 (stereo unspecified)	label 0
Oc1ccc(Cl)cc1-c1cc(-c2ccccc2)nc(=S)[nH]1	label 1
Cc1nn(C)c2ncnc(N/N=C/c3cccc(O)c3O)c12	label 1
S=C1C(=Nc2ccccc2)N(c2ccccc2)/C(=N\c2cccc[n+]2Cc2ccccc2)N1c1ccccc1	label 0
CCCCCCCCCCCNC=O	label 1
CCCC1=C(OC)C(=O)c2c(C)cc(Cl)nc2C1=O	label 0
Cc1c(OCc2cccc3ccccc23)ccc2c(=O)cc(SCCN3CCOCC3)oc12	label 1
O=C(O)COc1ccc(OCC(=O)O)cc1	label 0
O=c1[nH]n(CCc2ccccc2CCl)c2ccc([N+](=O)[O-])cc12	label 1
O=C1c2ccccc2C2(c3ccc(F)cc3)NCCN12 (stereo unspecified)	label 1
CC12OC(C(=O)C13CC3)C1C(=O)c3c(O)ccc(O)c3C(=O)C12 (stereo unspecified)	label 0
O=c1[nH]c2ccccc2c(O)c1/C=N/C(=S)NC1CCCCC1	label 1
CC(C)(C)c1cc(OCc2nnc3sc(Cc4ccccc4)nn23)c(Cl)cc1OCc1nnc2sc(Cc3ccccc3)nn12	label 1
COc1cccc(NC(=O)CC(=O)n2nc(-c3ccccc3)c(N=Nc3ccc(Cl)cc3)c2-c2ccccc2)c1	label 1
C=C(C(=O)OC)[C@@H]1CC2OC1C(=O)C(C)CCC/C(C)=C/CC[C@@]2(C)O (stereo partly specified)	label 1
NC1CCCCC1NCCNC1CCCCC1N (stereo unspecified)	label 0
COc1ccc2nc(C)cc(Sc3nc4ccccc4s3)c2c1	label 0
Cc1nc(NS(=O)(=O)c2ccc(NCN3C(=O)c4ccccc4C3=O)cc2)oc1C	label 1
O=C1OCC2=C1C(c1cccc(C(F)(F)F)c1)c1cc3c(cc1N2CCO)OCCO3 (stereo unspecified)	label 0
CC(=O)OCC1OC(n2c(=O)[nH]c(=O)c3n[nH]nc32)C(OC(C)=O)C(OC(C)=O)C1OC(C)=O (stereo unspecified)	label 1

----------
Tested on: SN12C renal
run.description: NCI tumour cell line growth inhibition, 48 h; in the data active = GI50 below about 0.43 µM; inactive = the rest
Outcome codes: active, inactive

compound	label.class
CC(=O)c1c[nH]c2ccc(-c3ccnc(Nc4ccc(NC(=O)C5CCCC5)c(CN5CCOCC5)c4)n3)cc12	active
CC1=C(CO)C(=O)O[C@@H]([C@@H](C)[C@H]2CC[C@H]3[C@@H]4C[C@H]5O[C@]56[C@@H](O)C=CC(=O)[C@]6(C)[C@H]4CC[C@]23C)C1	inactive
COc1cc(S(=O)(=O)Nc2nc(-c3ccc(N4C(=O)C(C)SC4c4ccccc4O)cc3)cs2)ccc1Cl (centres undefined)	inactive
CCCCCCCC(=O)[O-].CCCCCCCC(=O)[O-].N.N.N.N.[Co+3].[O-][Cl+3]([O-])([O-])[O-]	inactive

----------
List of GI50 values.
System: A549 NSCLC
run.description: NCI tumour cell line growth inhibition, 48 h
measurement.type: GI50

molecule	tgt	measurement.type	readout.value
O=C1OCC2=C1C(c1cccc(C(F)(F)F)c1)c1cc3c(cc1N2CCO)OCCO3 (centres undefined)	A549 NSCLC	GI50	1.53 µM
O=C1C(N2CCN(CCOCCO)CC2)=C(Cl)C(=O)c2ncccc21	A549 NSCLC	GI50	> 100 µM
CC(C)=Cc1cc(C)c2ccc(C)c3c2c1C(C)=C(O)C3=O	A549 NSCLC	GI50	32 µM
COc1cc(S(=O)(=O)Nc2nc(-c3ccc(N4C(=O)C(C)SC4c4ccccc4O)cc3)cs2)ccc1Cl (centres undefined)	A549 NSCLC	GI50	39.7 µM
N#CC1=C(N)NC(N2CCOCC2)=NC12Nc1ccccc1O2 (centres undefined)	A549 NSCLC	GI50	70 µM
COc1cc(/C=C/C(=O)CC(=O)/C=C/c2cc(OC)c(O)c(OC)c2)cc(OC)c1O	A549 NSCLC	GI50	16.6 µM
COc1ccc(Nc2ncnc3ccc(-c4cncc(NS(C)(=O)=O)c4)cc23)cc1Cl	A549 NSCLC	GI50	5.18 µM
OCCCCC#Cc1ccccc1C#Cc1cccnc1	A549 NSCLC	GI50	25.5 µM
CN1CCN(CCCOc2ccc3nc(Nc4ccc(F)c(F)c4)ccc3c2)CC1	A549 NSCLC	GI50	2.19 µM
